# Measurement Protocol: NCI Yeast Anticancer Drug Screen. Data for the bub3 strain (AID 167)
# Condition Summary: S. cerevisiae bub3 mutant strain, at 50.0 µM, active compounds read high
This is part of a sample that, as a whole, favours compounds with a hit. Of some 79,000 tested, about 15% had one in any assay.
For each of the compounds below, state its growth inhibition.
Numbers only here, please. The scale is %.

Request: Look up growth inhibition for this compound: "CC(C)CSc1nc2ccc(N=Cc3ccccc3O)cc2s1"
Response: 8.75

Request: Next: "CCOC(=O)C1=C(NC(C)=O)Sc2ccccc2C1"
Response: 2.45

Request: Next: CCC(C)c1cc(C(C)(C)C)cc(-n2nc3ccccc3n2)c1OS(=O)(=O)c1cccc(N)c1 (stereo not drawn)
Response: -16.9

* * *

For each of the compounds below, state its growth inhibition.
# Measurement Protocol: NCI Yeast Anticancer Drug Screen. Data for the rad50 strain (AID 155);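 note: 0% = growth of vehicle-only cultures of the same strain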
# Condition Summary: S. cerevisiae rad50 strain growth inhibition; at 50.0 µM; active compounds read high
# Experimental: Growth inhibition of yeast strains with defined genetic alterations is measured as a screen for potential anti-cancer activity. Selected strains with alterations in DNA damage repair or cell cycle control were exposed to compounds and growth inhibition was measured relative to vehicle treated controls. The strain used in this assay is rad50
About 79,000 compounds went through this panel and 15% of them were active in at least one assay; those are over-represented in the sample as a whole.
Numbers only here, please. The scale is %.

Request: Look up growth inhibition for this compound: CC(=O)OCC1OC(n2ncnc2CI)C(OC(C)=O)C(OC(C)=O)C1OC(C)=O (centres undefined)
Response: 36.5

Request: Next: "CCOC(=O)C(=O)Cc1cnccn1"
Response: -25.2

Request: Next: "CCCCCOC(=O)Nc1ccc(OCC)cc1"
Response: -9.15

Request: Next: "Nc1ccc(OCCc2c(N)nc(N)nc2N)cc1"
Response: -1.2

Request: Next: "COc1c(NC(=O)c2ccc(Cl)c(Cl)c2)cccc1[N+](=O)[O-]"
Response: 7.6

Request: Next: CCOC(=O)C1C(NNC(N)=O)CN(C(=O)OCC)C1C(=O)OCC (centres undefined)
Response: -9.2

Request: Next: "N#CCCN(c1ccc(C=Nc2cccc([N+](=O)[O-])c2)cc1)S(=O)(=O)c1ccccc1"
Response: 0.75

Request: Next: CCOC(=O)C(C)Oc1ccc(Cn2ccnn2)cc1 (centres undefined)
Response: -20.1

Request: Next: "CC(C)N(C)c1ncnc2c1cnn2C"
Response: -1.55

Request: Next: Clc1ccc(C2ON=C(c3ccccc3)N2C23CC4CC(CC(C4)C2)C3)c(Cl)c1 (centres undefined)
Response: -18.9

Request: Next: "N#C/C(=C\c1ccco1)C(N)=O"
Response: -11

Request: Next: "S=C(Nc1c2c(nc3ccccc13)CCCC2)Nc1c2c(nc3ccccc13)CCCC2"
Response: -14.9

Request: Next: "CC(C)c1ccccc1OC(=O)c1cccc(Br)c1"
Response: -19

Request: Next: "Brc1c(CCc2ccc3ccccc3c2Br)ccc2ccccc12"
Response: 0.1

Request: Next: "NC(=O)c1csc([C@@H](O)Cc2ccccc2)n1"
Response: -2.25

Request: Next: Nc1nc2c(ncn2C2OC(COC(=O)c3ccccc3)C(OC(=O)c3ccccc3)C2OC(=O)c2ccccc2)c(=O)[nH]1 (centres undefined)
Response: -25.9

Request: Next: "O=S(=O)(c1ccccc1)N1CCCN(S(=O)(=O)c2ccccc2)CC1"
Response: -11.9

Request: Next: COC1/C=C\OC2(C)Oc3c(C)c(O)c4c(O)c(c5sc(N)nc5c4c3C2=O)NC(=O)/C(C)=C\C=C\C(C)C(O)C(C)C(O)C(C)C(OC(C)=O)C1C (centres undefined)
Response: -2.25

Request: Next: N#CC(C(N)=O)C(CC(=O)c1ccccc1)c1ccccc1 (centres undefined)
Response: -7.65

Request: Next: "Cc1cc[n+](C2=C([O-])C3=C(C(=O)C2=O)C2c4ccccc4C3c3ccccc32)c(C)c1"
Response: 98.5

Request: Next: "COc1ccc(/C=N/NC(=O)c2cnc3[nH]c(=O)n(C)c(=O)c3c2)cc1"
Response: 10.7

Request: Next: NC(N)=NC(CC(=O)O)c1ccccc1 (centres undefined)
Response: -1.15

Request: Next: "CCOC(=O)CCC(=O)OCC"
Response: 21.6

Request: Next: "O=[N+]([O-])c1cc(Br)c2ccccc2c1"
Response: 6.7

Request: Next: "CC1(C)CCCN1C(=O)Nc1ccc([N+](=O)[O-])cc1[N+](=O)[O-]"
Response: 4.1

Request: Next: "Nc1nc2c(c(-c3nc(N)nc4c3CCC4)n1)CCC2"
Response: 9.7

Request: Next: "C=CCNC(=S)/N=C/C(C(=O)Nc1ccc(Cl)cc1)=C(\C)O"
Response: -34.1

Request: Next: "CCOC(CN/C(=C/c1ccc2ccccc2[n+]1C)SC)OCC"
Response: -10.8

Request: Next: CC(=O)NC1=NCC(CSc2nc3ccccc3s2)S1 (centres undefined)
Response: -8.45

Request: Next: "Nc1cc2cn[nH]c2cc1N"
Response: -10.6

Request: Next: CC(=O)NCC(O)C(O)C(O)C(O)COC(=O)c1ccccc1 (centres undefined)
Response: 6.6

Request: Next: "CN(C)Cc1cc(C=O)cc(CN(C)C)c1O"
Response: 10.3

Request: Next: "O=C(Cc1ccccc1)NN1C(=O)/C(=C\c2ccccc2)SC1=Nc1ccccc1"
Response: 12

Request: Next: C=C1C[C@]23CC[C@@H]4C(CO)(CO)CC(=O)C[C@]4(C)[C@@H]2C(O)C[C@H]1C3 (some centres undefined)
Response: 30.6
